Target: T1, hCSF1R ECD.506 (human, UniProt P07333 20-506)
T1 construct: also called human CSF1R ECD
T1 sequence (P07333 20-506): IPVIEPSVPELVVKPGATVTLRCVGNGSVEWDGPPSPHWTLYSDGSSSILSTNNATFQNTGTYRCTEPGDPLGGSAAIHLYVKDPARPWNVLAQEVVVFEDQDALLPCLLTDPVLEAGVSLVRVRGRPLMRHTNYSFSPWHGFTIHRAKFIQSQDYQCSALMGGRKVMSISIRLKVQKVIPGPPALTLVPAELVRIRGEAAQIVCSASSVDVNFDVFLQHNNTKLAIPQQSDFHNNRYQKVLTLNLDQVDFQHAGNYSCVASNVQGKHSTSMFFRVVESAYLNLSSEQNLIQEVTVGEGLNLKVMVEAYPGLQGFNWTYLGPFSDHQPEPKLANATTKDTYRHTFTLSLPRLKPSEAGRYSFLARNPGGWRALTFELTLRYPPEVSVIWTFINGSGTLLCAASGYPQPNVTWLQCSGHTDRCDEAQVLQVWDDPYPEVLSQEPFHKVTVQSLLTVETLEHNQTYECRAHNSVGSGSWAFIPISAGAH
Experiment: SPR Biacore T100, antibody captured on anti-human IgG, hCSF1R ECD.506 as analyte, 1:1 model
# koff values compiled below
The answer consists of two parts: a number and, after it, its unit.

// solved cases for koff follow
h0311-L0H2 (antibody, human IgG4 S228P, kappa, V domains shown, also called Ab15; huAb 0311-L0H2) VH: QVQLVQSGAEVKKPGSSVKVSCKASGYIFTDYNMHWVRQAPGQGLEWMGEINPNNGVVVYNQKFKGTTTLTVDKSTSTAYMELSSLRSEDTAVYYCTRALYHSNFGWYFDSWGQGTLVTVSS VL: EIVLTQSPATLSLSPGERATLSCKASQSVDYDGDSHMNWYQQKPGQAPRLLIYTASNLESGIPARFSGSGSGTDFTLTISSLEPEDFAVYYCQQGNEDPWTFGQGTKVEIKR :: 0.000473 s⁻¹
h0302-L1H2 (antibody, human IgG4 S228P, kappa, V domains shown, also called Ab11; huAb 0302-L1H2) VH: QVQLVQSGAEVKKPGSSVKVSCKASGYTFSDFNIHWVRQAPGQGLEWIGYINPYTDVTVYNEKFKGRATLTSDKSTSTAYMELSSLRSEDTAVYYCASYFDGTFDYALDYWGQGTLVTVSS VL: EIVLTQSPATLSLSPGERATLSCRASESVDNYGLSFMNWYQQKPGQAPRLLIYTASNLESGIPARFSGSGSRTDFTLTISSLEPEDFAVYYCQQSKELPWTFGQGTKVEIKR :: 0.00153 s⁻¹
h0311-L0H1 (antibody, human IgG4 S228P, kappa, V domains shown, also called Ab13; huAb 0311-L0H1) VH: QVQLVQSGAEVKKPGSSVKVSCKASGYIFTDYNMHWVRQAPGQGLEWMGEINPNNGVVVYNQKFKGRVTITVDKSTSTAYMELSSLRSEDTAVYYCTRALYHSNFGWYFDSWGQGTLVTVSS VL: EIVLTQSPATLSLSPGERATLSCKASQSVDYDGDSHMNWYQQKPGQAPRLLIYTASNLESGIPARFSGSGSGTDFTLTISSLEPEDFAVYYCQQGNEDPWTFGQGTKVEIKR :: 0.00054 s⁻¹
h0311-L1H1 (antibody, human IgG4 S228P, kappa, V domains shown, also called Ab14; huAb 0311-L1H1) VH: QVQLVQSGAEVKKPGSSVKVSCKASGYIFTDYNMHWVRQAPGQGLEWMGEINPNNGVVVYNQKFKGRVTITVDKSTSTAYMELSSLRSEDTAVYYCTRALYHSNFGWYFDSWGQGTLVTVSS VL: DIVLTQSPATLSLSPGERATLSCKASQSVDYDGDSHMNWYQQKPGQAPRLLIYTASNLESGIPARFSGSGSGADFTLTISSLEPEDFAVYYCQQGNEDPWTFGQGTKVEIKR :: 0.000664 s⁻¹

Query: What value of koff has been reported for the following binder? h0311-L1H2 (antibody, human IgG4 S228P, kappa, V domains shown, also called Ab16; huAb 0311-L1H2) VH: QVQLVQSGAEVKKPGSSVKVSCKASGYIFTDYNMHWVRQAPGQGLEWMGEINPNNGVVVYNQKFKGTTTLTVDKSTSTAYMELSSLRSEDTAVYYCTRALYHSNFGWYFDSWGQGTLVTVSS VL: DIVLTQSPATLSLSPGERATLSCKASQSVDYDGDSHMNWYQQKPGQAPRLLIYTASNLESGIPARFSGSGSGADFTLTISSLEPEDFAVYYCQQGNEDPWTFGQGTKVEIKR
Reply: 0.000609 s⁻¹
